Target: T1, hPRLR.mFc (soluble dimeric human PRLR) (human)
T1 construct: dimeric PRLR construct
T1 chain: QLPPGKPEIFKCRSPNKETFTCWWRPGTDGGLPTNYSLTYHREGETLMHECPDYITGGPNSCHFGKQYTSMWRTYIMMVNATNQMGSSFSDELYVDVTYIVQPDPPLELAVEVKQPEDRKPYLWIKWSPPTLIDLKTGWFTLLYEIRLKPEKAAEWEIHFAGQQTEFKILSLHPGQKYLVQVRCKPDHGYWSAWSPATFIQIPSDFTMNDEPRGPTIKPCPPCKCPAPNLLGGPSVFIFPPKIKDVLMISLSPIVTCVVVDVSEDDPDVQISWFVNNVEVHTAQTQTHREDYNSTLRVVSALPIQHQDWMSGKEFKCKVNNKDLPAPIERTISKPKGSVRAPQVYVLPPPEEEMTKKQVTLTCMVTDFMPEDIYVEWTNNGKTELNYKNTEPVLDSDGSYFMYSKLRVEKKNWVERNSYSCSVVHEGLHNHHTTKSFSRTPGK
Assay: SPR (Biacore), antibody capture, 37 C
METRIC NAME: koff (s⁻¹)
One number for each entry, in s⁻¹.

Guide cases for koff, answers given:
H1H6975N (antibody, human IgG1, V domains shown, also called H2M6975N) VH: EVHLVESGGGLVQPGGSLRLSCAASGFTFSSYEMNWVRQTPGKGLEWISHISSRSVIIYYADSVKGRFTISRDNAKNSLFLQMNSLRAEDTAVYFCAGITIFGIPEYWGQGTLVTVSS VL: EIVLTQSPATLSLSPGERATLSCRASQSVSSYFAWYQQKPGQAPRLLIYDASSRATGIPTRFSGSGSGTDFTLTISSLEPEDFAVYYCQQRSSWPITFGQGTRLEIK	7.09e-05
H1H6958N2 (antibody, human IgG1, V domains shown, also called H2M6958N2) VH: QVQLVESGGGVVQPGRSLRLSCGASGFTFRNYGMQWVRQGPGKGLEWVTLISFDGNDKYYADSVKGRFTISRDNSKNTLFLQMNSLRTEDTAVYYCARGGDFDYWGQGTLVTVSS VL: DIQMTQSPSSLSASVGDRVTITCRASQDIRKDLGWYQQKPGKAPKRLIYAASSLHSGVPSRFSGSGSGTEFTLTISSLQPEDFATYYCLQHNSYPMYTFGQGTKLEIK	0.000139
H1H6960N (antibody, human IgG1, V domains shown, also called H2M6960N) VH: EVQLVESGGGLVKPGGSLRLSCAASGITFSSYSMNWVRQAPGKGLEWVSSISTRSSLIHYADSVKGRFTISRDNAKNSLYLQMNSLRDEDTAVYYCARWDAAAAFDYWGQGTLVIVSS VL: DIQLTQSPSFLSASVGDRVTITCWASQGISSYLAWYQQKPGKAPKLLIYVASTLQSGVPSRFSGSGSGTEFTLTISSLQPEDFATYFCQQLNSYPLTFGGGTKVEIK	0.000147
H1H6801P (antibody, human IgG1, V domains shown, human IgG1 Fc (H1H)) VH: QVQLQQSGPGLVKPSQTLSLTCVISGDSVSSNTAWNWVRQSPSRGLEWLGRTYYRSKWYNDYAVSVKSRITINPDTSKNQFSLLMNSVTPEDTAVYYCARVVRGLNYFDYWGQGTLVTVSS VL: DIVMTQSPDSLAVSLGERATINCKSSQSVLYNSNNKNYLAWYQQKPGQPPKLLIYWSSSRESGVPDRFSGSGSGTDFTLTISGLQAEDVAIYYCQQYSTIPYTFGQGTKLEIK	0.000221
H1H6966N (antibody, human IgG1, V domains shown, also called H2M6966N) VH: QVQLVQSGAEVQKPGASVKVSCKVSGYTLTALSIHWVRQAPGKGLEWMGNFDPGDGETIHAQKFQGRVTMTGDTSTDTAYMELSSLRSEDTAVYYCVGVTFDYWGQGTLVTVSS VL: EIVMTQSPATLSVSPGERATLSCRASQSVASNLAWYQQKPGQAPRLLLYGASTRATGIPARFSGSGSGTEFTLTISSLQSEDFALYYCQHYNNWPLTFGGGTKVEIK	0.000127

Below are some binders; for each one, tell me its koff.
1. H1H6792P (antibody, human IgG1, V domains shown, human IgG1 Fc (H1H)) VH: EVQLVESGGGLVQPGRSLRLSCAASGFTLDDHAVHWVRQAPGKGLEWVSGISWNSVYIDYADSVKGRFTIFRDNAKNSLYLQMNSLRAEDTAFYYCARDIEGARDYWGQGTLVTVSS VL: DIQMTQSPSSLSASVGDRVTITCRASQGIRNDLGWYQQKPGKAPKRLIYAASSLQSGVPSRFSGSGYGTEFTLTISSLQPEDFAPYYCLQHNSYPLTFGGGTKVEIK
2. H1H6774P (antibody, human IgG1, V domains shown, human IgG1 Fc (H1H)) VH: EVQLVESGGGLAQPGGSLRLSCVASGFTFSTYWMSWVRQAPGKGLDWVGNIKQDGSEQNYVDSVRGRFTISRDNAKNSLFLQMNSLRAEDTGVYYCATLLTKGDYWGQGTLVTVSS VL: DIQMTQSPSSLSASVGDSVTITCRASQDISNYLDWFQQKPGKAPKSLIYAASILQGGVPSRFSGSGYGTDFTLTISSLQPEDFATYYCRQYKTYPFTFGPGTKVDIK
3. H1H6797P (antibody, human IgG1, V domains shown, human IgG1 Fc (H1H)) VH: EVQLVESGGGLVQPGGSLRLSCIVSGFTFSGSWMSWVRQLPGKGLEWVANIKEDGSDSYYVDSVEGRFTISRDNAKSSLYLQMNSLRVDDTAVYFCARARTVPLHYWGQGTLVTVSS VL: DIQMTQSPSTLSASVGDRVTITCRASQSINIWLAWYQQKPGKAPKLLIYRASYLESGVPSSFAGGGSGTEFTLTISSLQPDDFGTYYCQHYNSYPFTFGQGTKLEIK
4. H1H6959N2 (antibody, human IgG1, V domains shown, also called H2M6959N2) VH: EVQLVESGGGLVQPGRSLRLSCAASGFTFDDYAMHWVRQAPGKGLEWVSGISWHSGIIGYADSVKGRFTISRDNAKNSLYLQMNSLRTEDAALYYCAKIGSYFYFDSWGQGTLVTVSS VL: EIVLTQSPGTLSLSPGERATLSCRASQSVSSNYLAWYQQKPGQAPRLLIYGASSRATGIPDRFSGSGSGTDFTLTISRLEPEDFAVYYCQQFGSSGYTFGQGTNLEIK
5. H1H6804P (antibody, human IgG1, V domains shown, human IgG1 Fc (H1H)) VH: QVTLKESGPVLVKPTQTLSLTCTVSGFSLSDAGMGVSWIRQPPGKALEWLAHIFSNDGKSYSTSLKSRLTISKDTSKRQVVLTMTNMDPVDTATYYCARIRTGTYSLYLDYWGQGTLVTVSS VL: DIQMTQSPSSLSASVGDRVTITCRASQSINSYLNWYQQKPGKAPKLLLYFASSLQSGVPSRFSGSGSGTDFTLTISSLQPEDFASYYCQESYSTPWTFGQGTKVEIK

RESULT:
0.000176
0.000194
0.000125
0.0023
0.000205
